All figures here come from PubChem BioAssay (NCATS).

Reported growth, % of control values for a set of compounds
- assay-summary: qHTS profiling of the MIPE4 collection as inhibitors of Plasmodium falciparum (HB3) proliferation (AID 743347);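 note: plate controls were DMSO vehicle wells for no effect and artemisinin wells for full effect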
- conditions-used: P. falciparum HB3 in erythrocytes, SYBR Green DNA, 72 h; at 28.5 µM (top of the series) unless noted
Kindly provide the numeric value in % only, without the unit symbol.

What measured growth, % of control goes with CCN1CCN(c2ccc(Nc3cc(N(C)C(=O)Nc4c(Cl)c(OC)cc(OC)c4Cl)ncn3)cc2)CC1 ?
2.41

Entry O=C(Nc1cccc(Cl)c1)Nc1ncc(CCNc2ncnc3ccsc23)s1 please
5.75

Entry C[C@@H]1C[C@H]2[C@@H]3CCC4=CC(=O)C=C[C@]4(C)[C@@]3(F)[C@@H](O)C[C@]2(C)[C@@]1(O)C(=O)CO please
9.35

Entry COc1c(C)cnc(Cn2cnc3c(Cl)nc(N)nc32)c1C please
21.1

// switching to the query compound
What measured growth, % of control goes with Cc1ccc(NC(=O)c2cccc(N(C)C)c2)cc1NC(=O)c1ccc(O)cc1 ?
31.2

====

Reported Potency values for a set of compounds
- assay-summary: qHTS of pediatric cancer cell lines to identify multiple opportunities for drug repurposing: Confirmatory screen for Rh18 cells (AID 1347125);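 note: potency is the fitted concentration of half-maximal effect; cells exposed to compound for 48 h; nearly all actives have a fitted effect of over 55% in size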
- conditions-used: Rh18 rhabdomyosarcoma cells, viability; series mostly up to 45.9 µM
Inconclusive results are not listed. Calls of active or inactive are those of the source. Calls follow the shape of the dose curve; as a rule, active = well fitted cell-killing curve with a large enough effect; inconclusive = small, poorly fitted or top-dose-only effect, or effect the other way; inactive = flat fitted curve, though single readings scatter.

What measured Potency goes with CN(C)CC[C@H](CSc1ccccc1)Nc1ccc(S(=O)(=O)NC(=O)c2ccc(N3CCN(Cc4ccccc4-c4ccc(Cl)cc4)CC3)cc2)cc1[N+](=O)[O-] ?
1310 nM (active)

Entry COc1ccc(-c2ccc3ncc4c(c3c2)n(-c2ccc(N3CCNCC3)c(C(F)(F)F)c2)c(=O)n4C)cn1 please
414 nM (active)

Others:
What measured Potency goes with CCNC(=O)c1noc(-c2cc(C(C)C)c(O)cc2O)c1-c1ccc(CN2CCOCC2)cc1 ?
92.8 nM (active)

====

- assay-summary: qHTS profiling of the MIPE4 collection as inhibitors of Plasmodium falciparum (3D7) proliferation (AID 743344);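 note: scaled between DMSO vehicle wells and 0.29 µM artemisinin as full inhibition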
- conditions-used: P. falciparum 3D7 in erythrocytes, SYBR Green DNA fluorescence, 72 h; at 28.5 µM (top of the series) unless noted
Decide using parasite growth, % of DMSO control: a value greater than or equal to 10% is true (1), a smaller one is false (0).

Study these solved cases before continuing.
# bool: parasite growth, % of DMSO control of N=C1SC(=Cc2ccc(-c3ccc4c(c3)C(=O)NC4=O)o2)C(=O)N1c1ccc(Br)cc1 >= 10%
false (0)

Entry CC[C@]1(O)C[C@H]2CN(CCC3=c4ccccc4=N[C]3[C@@](C(=O)OC)(c3cc4c(cc3OC)N(C)[C@H]3[C@@](O)(C(N)=O)[C@H](O)[C@]5(CC)C=CCN6CC[C@]43[C@@H]65)C2)C1 please
true (1)

Entry CC1(COc2ccc3c(c2)ncn3-c2ccc3cccc(N4CCC(N)CC4)c3n2)COC1 please
false (0)

Entry CC[C@H](C)C(=O)O[C@H]1C[C@H](O)C=C2C=C[C@H](C)[C@H](CC[C@@H](O)C[C@@H](O)CC(=O)O)[C@H]21 please
true (1)

Entry NC(=O)c1nnn(Cc2cc(Cl)c(C(=O)c3ccc(Cl)cc3)c(Cl)c2)c1N please
true (1)

Others:
# bool: parasite growth, % of DMSO control of Cc1cc2nc3c(=O)[nH]c(=O)nc-3n(CC(O)C(O)C(O)CO)c2cc1C (stereo not drawn) >= 10%
true (1)

Entry c1ccc(CNc2nc(N3CCOc4ccccc43)nc3c2CCCC3)cc1 please
true (1)

Entry Cn1c(=O)c(-c2c(Cl)cccc2Cl)cc2cnc(Nc3cccc(C(=O)O)c3)nc21 please
true (1)

====

- assay-summary: qHTS profiling of the MIPE4 collection as inhibitors of Plasmodium falciparum (DD2) proliferation (Rep 2) (AID 743346)
- conditions-used: P. falciparum Dd2 in erythrocytes, SYBR Green DNA, 72 h; at 28.5 µM (top of the series) unless noted
- Method: Plasmodium falciparum is a virulent malarial parasite that kills 1-2 million people worldwide each year. […] Because mature erythrocytes lack DNA, only Plasmodium-derived DNA is detected. The SYBR Green viability assay was adapted from a method described previously (Plouffe et al., 2008). […] The following morning, fluorescence intensity at 485(14) nm excitation and 535(25) nm emission wavelengths was measured on an EnVision (Perkin Elmer) plate reader. […]
Friendly reminder: parasite growth, % of control (lower = inhibition) below 30% is TRUE, at or above is FALSE.

Study these solved cases before continuing.
Determine if Cc1ccccc1C(=O)c1ccc(Nc2ccc(Br)cc2N)cc1Cl shows parasite growth, % of control (lower = inhibition) strictly lower than 30%.
FALSE

Entry CC1CCN(c2cc(N3CCN(C)CC3)ccc2NC(=O)c2cc(C#N)c[nH]2)CC1 please
FALSE

Entry CCOC(=O)[C@H](CCc1ccccc1)N[C@@H](C)C(=O)N1CCCC1C(=O)O (stereo not given in full) please
FALSE

Entry CS(=O)(=O)c1ccc(C2=C(c3ccccc3)C(=O)OC2)cc1 please
FALSE

Entry CN(C)CCN(Cc1ccc(Cl)cc1)c1ccccn1 please
TRUE

Others:
Determine if C[C@@]1(C(=O)Nc2ccc(F)nc2)CCCN1c1nc(Nc2cc(C3CC3)[nH]n2)c2cccn2n1 shows parasite growth, % of control (lower = inhibition) strictly lower than 30%.
TRUE

Entry CC1=C(C(=O)Nc2cc3cn[nH]c3cc2F)C(c2ccc(C(F)(F)F)cc2)CC(=O)N1 (stereo not given) please
TRUE

Entry NC1(C(=O)N[C@@H](CCO)c2ccc(Cl)cc2)CCN(c2ncnc3[nH]ccc23)CC1 please
TRUE

Entry Nc1[nH]nc2nnc(-c3c(-c4ccccc4)nn4ccccc34)cc12 please
FALSE

Entry O=C(c1ccc(C(=O)N2CCC(N3CCCC3)CC2)c(Nc2ccccc2)c1)N1CCC(N2CCCC2)CC1 please
FALSE

====

- System: HaCat
- assay-summary: Cytotoxic Profiling of Annotated Libraries Using Quantitative High-Throughput Screening (AID 1296008); note: nearly all actives have a fitted effect of over 60% in size; note: potency is the fitted concentration of half-maximal effect
- conditions-used: Five cell lines viability, CellTiter-Glo ATP luminescence, 48-72 h
Results filed as inconclusive are left out. Activity calls are given as the source filed them. Calls follow the shape of the dose curve; as a rule, active = well fitted inhibition curve with a large enough effect; inconclusive = small, poorly fitted or top-dose-only effect; inactive = flat fitted curve, though single readings scatter.
readout: Potency

Some compounds with recorded Potency:
What measured Potency goes with O=C(O)CCC=CCC[C@@H]1[C@H](N2CCCCC2)[C@@H](O)C[C@@H]1OCc1ccc(-c2ccccc2)cc1 ?
inactive

Entry O=c1[nH]nc(OCCCc2ccc(Cl)cc2)c(NCc2cccnc2)c1Br please
20.9 µM (active)

Entry COc1nc(C)cnc1NS(=O)(=O)c1cccnc1-c1ccc(-c2nnco2)cc1 please
inactive

Entry CC(=O)NCCC(=O)N[C@@H](CCC(N)=O)C(=O)N[C@@H](CO)C(=O)N[C@@H](CCC(N)=O)C(=O)N[C@@H](CCC(N)=O)C(=O)N[C@H](C(=O)N[C@@H](Cc1ccccc1)C(=O)N[C@]1(C)CCCCCCC=CCCC[C@@](C)(C(=O)N[C@@H](CCC(N)=O)C(=O)N[C@@H](CC(N)=O)C(N)=O)NC(=O)[C@H](CC(C)C)NC(=O)[C@H](CC(C)C)NC(=O)[C@@H](CCCNC(=N)N)NC(=O)[C@H](Cc2c[nH]c3ccccc23)NC(=O)[C@H](CC(C)C)NC(=O)[C@H](CC(N)=O)NC1=O)[C@H](C)O please
inactive

Others:
What measured Potency goes with CN(C)CCOc1cc(-c2cn[nH]c2)ccc1NC(=O)C1COc2ccccc2O1 (stereo not given) ?
inactive

====

- assay-summary: Quantitative High-Throughput drug screen in 47 multiple myeloma cell lines against the NCATS MIPE library collection: VP6_DJ cell viability assay (AID 1919867); note: nearly all actives have a fitted effect of over 40% in size; note: potency is the fitted concentration of half-maximal effect
- conditions-used: ATP luminescence, 48 h; series mostly up to 45.8 µM
Records with an inconclusive call do not appear. The source made the active and inactive calls. The call rests on the fitted dose curve; in most records, active means well fitted cell-killing curve with a large enough effect; inconclusive means small, poorly fitted or top-dose-only effect, or effect the other way; inactive means no such curve, though single readings can be large or run the other way.
readout: Potency

Some compounds with recorded Potency:
What measured Potency goes with C=CCc1cccc(C=NNC(=O)CN2CCN(Cc3ccccc3)CC2)c1O ?
7.43 µM (active)

Entry c1cc(OCCN2CCCCC2)cc(-c2n[nH]c3ccc(-c4ncn[nH]4)cc23)c1 please
11.8 µM (active)

Entry COc1cc(C=CC(=O)O)ccc1O please
inactive

Entry CN(C)CCN(Cc1ccc(Cl)cc1)c1ccccn1 please
20.9 µM (active)

Entry NC(N)=Nc1nc(CSCCC(N)=NS(N)(=O)=O)cs1 please
5.26 µM (active)

Others:
What measured Potency goes with CC1(C)C(N(O)C(=O)Nc2ccc(Cl)cc2)N(c2ccc(Cl)cc2)C(=O)N1CC(=O)NN=CC=Cc1ccc([N+](=O)[O-])o1 (centres undefined) ?
8.33 µM (active)

Entry C[C@H](CCC(=O)O)[C@H]1CC[C@H]2[C@H]3[C@@H](CC[C@]12C)[C@@]1(C)CC[C@@H](O)C[C@H]1C[C@@H]3O please
20.9 µM (active)

Entry CN1CC(=O)N2C(Cc3c([nH]c4ccccc34)[C@H]2c2ccc3c(c2)OCO3)C1=O (some centres undefined) please
inactive

Entry N#CC(c1ccc(Cl)cc1)c1c(Cl)cc(-n2ncc(=O)[nH]c2=O)cc1Cl (centres undefined) please
20.9 µM (active)
